// provenance: the supplement of paper PMC8371130

Test system: HL-1
Experiment: relative cell viability (CellTiter-Glo) vs DMSO control (% of DMSO control); higher = more viable cells
Conditions: oxygen condition: normoxia 72 h; 200 nM
Where a name gives a salt, the structure may show the parent alone.
measurement-kind: relative cell viability

- compound: "O=C1c2cccc3c2[C@H](CCC3)CN1[C@@H]1CN2CCC1CC2 [Palonosetron HCl]"
  tested-system: "HL-1"
  measurement-kind: "relative cell viability"
  value-observed: 103
- compound: "CCCc1nc2c(C)cc(-c3nc4ccccc4n3C)cc2n1Cc1ccc(-c2ccccc2C(=O)O)cc1 [Telmisartan]"
  tested-system: "HL-1"
  measurement-kind: "relative cell viability"
  value-observed: 104
- compound: "CCOC(=O)C1=C(COCCN)NC(C)=C(C(=O)OC)C1c1ccccc1Cl (stereo not drawn) [Amlodipine besylate]"
  tested-system: "HL-1"
  measurement-kind: "relative cell viability"
  value-observed: 105
- compound: "N[C@H](Cc1ccccc1)C(=O)O [D-Phenylalanine]"
  tested-system: "HL-1"
  measurement-kind: "relative cell viability"
  value-observed: 101
- compound: "CCC[C@H](N[C@@H](C)C(=O)N1[C@H](C(=O)O)C[C@@H]2CCCC[C@@H]21)C(=O)OCC [Perindopril Erbumine]"
  tested-system: "HL-1"
  measurement-kind: "relative cell viability"
  value-observed: 111
- compound: "CCC[C@@H]1C[C@@H](C(=O)N[C@@H]([C@H]2O[C@H](SC)[C@H](O)[C@@H](O)[C@H]2O)[C@H](C)Cl)N(C)C1 [Clindamycin hydrochloride]"
  tested-system: "HL-1"
  measurement-kind: "relative cell viability"
  value-observed: 98

Qu. Fill blank: measured relative cell viability of the compound Cc1[nH]c(=O)c(C#N)cc1-c1ccncc1 [Milrinone] is ____.
Ans. 108

Qu. Then CCCCCCCCOc1ccccc1C(=O)Nc1ccc(C(=O)OCC[N+](C)(CC)CC)cc1 [Otilonium Bromide] ?
Ans. 105

* * *

Recorded relative cell viability, one value per entry.
Test system: HL-1
Test: relative cell viability (CellTiter-Glo) vs DMSO control (% of DMSO control); higher = more viable cells
Details: oxygen condition: normoxia 72 h; 5000 nM
Counter-ions that a name gives are not always drawn.
Write the value as a bare number.

- compound: "OC(CCN1CCCCC1)(c1ccccc1)C1CC2C=CC1C2 (centres undefined) [Biperiden HCl]"
  relative cell viability: 100
- compound: "CC/C(=C(/CC)c1ccc(O)cc1)c1ccc(O)cc1"
  relative cell viability: 112
- compound: "CC(C)C[C@H](NC(=O)[C@H](CCc1ccccc1)NC(=O)CN1CCOCC1)C(=O)N[C@@H](Cc1ccccc1)C(=O)N[C@@H](CC(C)C)C(=O)[C@@]1(C)CO1"
  relative cell viability: 3.71

In the following, a different compound is considered.
Qu. Fill blank: measured relative cell viability of the compound `O=c1c(-c2ccc(O)cc2)coc2cc(O)ccc12` is ____.
Ans. 118

* * *

Test system: HL-1
Assay: relative cell viability (CellTiter-Glo) vs DMSO control (% of DMSO control); higher = more viable cells
Conditions: oxygen condition: hypoxia 48 h (1% O2) + reoxygenation 24 h; 5000 nM
Counter-ions that a name gives are not always drawn.
measurement-kind: relative cell viability
Write the value as a bare number.

- compound: "Cc1ccc(Nc2nccc(N(C)c3ccc4c(C)n(C)nc4c3)n2)cc1S(N)(=O)=O [Pazopanib HCl]"
  tested-system: "HL-1"
  measurement-kind: "relative cell viability"
  value-observed: 109
- compound: "C#Cc1cccc(Nc2ncnc3cc(OCCOC)c(OCCOC)cc23)c1 [Erlotinib HCl]"
  tested-system: "HL-1"
  measurement-kind: "relative cell viability"
  value-observed: 124
- compound: "CC1=C(CC(=O)O)c2cc(F)ccc2/C1=C\\c1ccc([S+](C)[O-])cc1 (stereo not drawn) [Sulindac]"
  tested-system: "HL-1"
  measurement-kind: "relative cell viability"
  value-observed: 61.2
- compound: "CC(=O)OCC(=O)[C@@]1(O)CC[C@H]2[C@@H]3CCC4=CC(=O)CC[C@]4(C)[C@H]3C(=O)C[C@@]21C [Cortisone acetate]"
  tested-system: "HL-1"
  measurement-kind: "relative cell viability"
  value-observed: 108
- compound: "O=C(c1ccccc1)c1ccc2n1CCC2C(=O)O (stereo not drawn) [Ketorolac]"
  tested-system: "HL-1"
  measurement-kind: "relative cell viability"
  value-observed: 109
- compound: "CN(C)CCc1c[nH]c2ccc(Cn3cncn3)cc12 [Rizatriptan Benzoate]"
  tested-system: "HL-1"
  measurement-kind: "relative cell viability"
  value-observed: 107
- compound: "CN1C2CCCC1CC(NC(=O)c1nn(C)c3ccccc13)C2 (stereo not drawn) [Granisetron HCl]"
  tested-system: "HL-1"
  measurement-kind: "relative cell viability"
  value-observed: 101

Qu. Fill blank: measured relative cell viability of the compound CC1=C(C(=O)OC(C)C)C(c2cccc([N+](=O)[O-])c2)C(C(=O)OC2CN(C(c3ccccc3)c3ccccc3)C2)=C(N)N1 (stereo not drawn) [Azelnidipine] is ____.
Ans. 112

* * *

Recorded relative cell viability, one value per entry.
Test system: HL-1
Assay: relative cell viability (CellTiter-Glo) vs DMSO control (% of DMSO control); higher = more viable cells
Details: oxygen condition: hypoxia 48 h (1% O2) + reoxygenation 24 h; 40 nM
Counter-ions that a name gives are not always drawn.
Write the value as a bare number.

Consider the worked cases shown below.
- compound: "Oc1ccc(OCc2ccccc2)cc1 [Monobenzone]"
  relative cell viability: 99.6
- compound: "[I-].[K+] [Potassium iodide]"
  relative cell viability: 103
- compound: "Nc1ccn([C@@H]2O[C@H](CO)[C@@H](O)[C@@H]2O)c(=O)n1 [Cytarabine]"
  relative cell viability: 89.2
- compound: "CN(Cc1cc(Br)cc(Br)c1N)C1CCCCC1 [Bromhexine HCl]"
  relative cell viability: 97.5

Qu. Fill blank: measured relative cell viability of the compound Cc1cc(C2CCCCC2)n(O)c(=O)c1 [Ciclopirox] is ____.
Ans. 95.4

Qu. Then CC(C)C[C@H](NC(=O)[C@@H](O)[C@H](N)Cc1ccccc1)C(=O)O [Ubenimex] ?
Ans. 99.1

* * *

System: HL-1
Test: relative cell viability (CellTiter-Glo) vs DMSO control (% of DMSO control); higher = more viable cells
Details: oxygen condition: hypoxia 48 h (1% O2) + reoxygenation 24 h; 5000 nM
Where a name gives a salt, the structure may show the parent alone.
measurement-kind: relative cell viability
Write the value as a bare number.

- compound: "Cc1cn([C@H]2C[C@H](N=[N+]=[N-])[C@@H](CO)O2)c(=O)[nH]c1=O"
  measurement-kind: "relative cell viability"
  value-observed: 112
- compound: "N#CC[C@H](C1CCCC1)n1cc(-c2ncnc3[nH]ccc23)cn1"
  measurement-kind: "relative cell viability"
  value-observed: 111

Qu. Write down the reported relative cell viability of CNCC[C@@H](Oc1ccccc1C)c1ccccc1 [Atomoxetine HCl] , test system: HL-1.
Ans. 108

Qu. Then CNC(=O)CN(CCN(CCN(CC(=O)[O-])CC(=O)NC)CC(=O)[O-])CC(=O)[O-].[Gd+3] [Gadodiamide] ?
Ans. 106

Qu. Then `CC(=O)O[C@@]12CO[C@@H]1C[C@H](O)[C@@]1(C)C(=O)[C@H](O)C3=C(C)[C@@H](OC(=O)[C@H](O)[C@@H](NC(=O)OC(C)(C)C)c4ccccc4)C[C@@](O)([C@@H](OC(=O)c4ccccc4)[C@H]21)C3(C)C` ?
Ans. 29.3

Qu. Then `CC(=O)OCC(=O)[C@@]12N=C(C)O[C@@H]1C[C@H]1[C@@H]3CCC4=CC(=O)C=C[C@]4(C)[C@H]3[C@@H](O)C[C@@]12C` ?
Ans. 77.3

Qu. Then COCCCOc1cc(C[C@@H](C[C@H](N)[C@@H](O)C[C@H](C(=O)NCC(C)(C)C(N)=O)C(C)C)C(C)C)ccc1OC [Aliskiren hemifumarate] ?
Ans. 107

Qu. Then `O=C1CCc2ccc(OCCCCN3CCN(c4cccc(Cl)c4Cl)CC3)cc2N1` ?
Ans. 97.8

Qu. Then `CS(=O)(=O)OCCCCOS(C)(=O)=O` ?
Ans. 107

Qu. Then `C[C@@H]1C[C@H]2[C@@H]3C[C@H](F)C4=CC(=O)C=C[C@]4(C)[C@@]3(F)[C@@H](O)C[C@]2(C)[C@@]1(O)C(=O)CO` ?
Ans. 106

Qu. Then C=CCc1cc(OC)c(O)c(C(=O)NCCO)c1 [Alibendol] ?
Ans. 113

Qu. Then `Cc1c(OCC(F)(F)F)ccnc1C[S@@+]([O-])c1nc2ccccc2[nH]1` ?
Ans. 105

Qu. Then `CC(=O)[C@H]1CC[C@H]2[C@@H]3CC=C4C[C@@H](O)CC[C@]4(C)[C@H]3CC[C@]12C` ?
Ans. 117

Qu. Then NCCCC(O)(P(=O)(O)O)P(=O)(O)O [Alendronate] ?
Ans. 109

Qu. Then `CC(=O)O[C@H]1C(=O)[C@@]2(C)[C@H]([C@H](OC(=O)c3ccccc3)[C@]3(O)C[C@H](OC(=O)[C@H](O)[C@@H](NC(=O)c4ccccc4)c4ccccc4)C(C)=C1C3(C)C)[C@]1(OC(C)=O)CO[C@@H]1C[C@@H]2O` ?
Ans. 30.5

Qu. Then Cc1cccc(C)c1NC(=O)C1CCCCN1C (stereo not given) [Mepivacaine HCl] ?
Ans. 105

Qu. Then N[C@@H]1CCCCN(c2c(F)cc3c(=O)c(C(=O)O)cn(C4CC4)c3c2Cl)C1 [Besifloxacin HCl] ?
Ans. 101

Qu. Then `CC[C@H]1OC(=O)[C@H](C)[C@@H](O[C@H]2C[C@@](C)(OC)[C@@H](O)[C@H](C)O2)[C@H](C)[C@@H](O[C@@H]2O[C@H](C)C[C@H](N(C)C)[C@H]2O)[C@](C)(OC)C[C@@H](C)C(=O)[C@H](C)[C@@H](O)[C@]1(C)O` ?
Ans. 105

Qu. Then Nc1[nH]cnc2ncnc1-2 [Adenine sulfate] ?
Ans. 111

Qu. Then `O=C1NC(=O)C(c2ccccc2)(c2ccccc2)N1` ?
Ans. 103

Qu. Then CC(O)(P(=O)(O)O)P(=O)(O)O [Etidronate] ?
Ans. 109

Qu. Then `CC(C)(C#N)c1cc(Cn2cncn2)cc(C(C)(C)C#N)c1` ?
Ans. 34.5
